Molecular target: Cathepsin D (Cat D) (Homo sapiens (Human), UniProt P07339)
Sequence (P07339 65-412, species assumed): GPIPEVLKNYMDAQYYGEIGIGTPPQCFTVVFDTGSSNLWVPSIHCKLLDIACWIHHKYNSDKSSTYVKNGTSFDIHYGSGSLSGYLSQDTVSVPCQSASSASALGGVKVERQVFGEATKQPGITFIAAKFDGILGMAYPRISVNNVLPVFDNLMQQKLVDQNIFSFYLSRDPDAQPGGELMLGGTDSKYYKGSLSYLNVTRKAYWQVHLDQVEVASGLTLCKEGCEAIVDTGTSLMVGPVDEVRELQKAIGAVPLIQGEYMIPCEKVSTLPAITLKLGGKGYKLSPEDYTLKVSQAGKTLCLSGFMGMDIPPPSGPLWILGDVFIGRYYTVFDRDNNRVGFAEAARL
Experiment: In vitro enzymatic Cathepsin D (Cat D) FRET assay
Type: biochemical
Details: read-out: CatD IC50
Listed here: items and their measured pIC50.
Give only the number. pIC50 is defined as minus log10 of concentration in molar units.

// below: answered molecules
1. NC1=N[C@@](c2cccc(NC(=O)c3ccc(Cl)cn3)c2)(C(F)F)[C@H]2C[C@H]2O1 [Example 263]: 2.97
2. Cc1cc(OC(F)F)cnc1C(=O)Nc1cc(F)c(Cl)c([C@]2(CF)N=C(N)O[C@H]3C[C@H]32)c1 (racemic) [Example 153]: 3.26
3. NC1=N[C@@](c2cc(NC(=O)c3ccc(Cl)cn3)cc(F)c2F)(C(F)F)[C@H]2C[C@H]2O1 [Example 107]: 3.67

Consider now this further molecule.
Fill in reported pIC50 for this entry: Cc1cc(OCC#CC(C)(C)O)cnc1C(=O)Nc1ccc(F)c(C2(C)N=C(N)O[C@H]3C[C@H]32)c1 (mixture of isomers) [Example 29]
3.33
